- TEST NAME: Phase II metabolic stability in S9 fractions
- Assay type: in vitro ADME, human
- COND: human, s9
MEASURED QUANTITY: half-life at 100 μM

Task: Endpoint output: half-life at 100 μM of "C[C@@H]1CC[C@@]2(OC1)O[C@H]1C[C@H]3[C@@H]4CC=C5C[C@@H](O)CC[C@]5(C)[C@H]4CC[C@]3(C)[C@H]1[C@@H]2C" . Value?
Output: 11.3 min

====

The entries below are paired with their reported IC50.
- SYSTEM: CYP1A2 (Homo sapiens)
- Sequence (P05177 1-516): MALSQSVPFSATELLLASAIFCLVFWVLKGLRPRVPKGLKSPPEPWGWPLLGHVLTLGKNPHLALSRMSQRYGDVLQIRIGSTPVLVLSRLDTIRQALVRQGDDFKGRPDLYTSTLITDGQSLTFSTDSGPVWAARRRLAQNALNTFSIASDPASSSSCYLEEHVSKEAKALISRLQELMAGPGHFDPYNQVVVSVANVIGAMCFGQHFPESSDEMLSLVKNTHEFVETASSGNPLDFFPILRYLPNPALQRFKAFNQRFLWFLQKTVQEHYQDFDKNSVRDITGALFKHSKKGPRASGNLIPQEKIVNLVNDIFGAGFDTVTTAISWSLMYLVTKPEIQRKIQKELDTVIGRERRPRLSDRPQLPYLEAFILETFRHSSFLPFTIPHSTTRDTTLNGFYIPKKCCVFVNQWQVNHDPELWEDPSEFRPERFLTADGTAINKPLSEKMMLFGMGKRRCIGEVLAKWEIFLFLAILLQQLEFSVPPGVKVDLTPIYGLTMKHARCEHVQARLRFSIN

1. C[C@@H]1CC[C@@]2(OC1)O[C@H]1C[C@H]3[C@@H]4CC=C5C[C@@H](O)CC[C@]5(C)[C@H]4CC[C@]3(C)[C@H]1[C@@H]2C [Diosgenin, diosgenin] = > 50 µM

Task: Dear colleague, I am looking for the recorded IC50 of the following molecule: C[C@@H]1CC[C@@]2(OC1)O[C@H]1C[C@H]3[C@@H]4CC=C5C[C@@H](O[C@@H]6O[C@H](CO)[C@@H](O[C@@H]7O[C@@H](C)[C@H](O)[C@@H](O)[C@H]7O)[C@H](O)[C@H]6O[C@@H]6O[C@@H](C)[C@H](O)[C@@H](O)[C@H]6O)CC[C@]5(C)[C@H]4CC[C@]3(C)[C@H]1[C@@H]2C [Dioscin, dioscin]
Output: > 50 µM

====

- SYSTEM: CYP3A4 (Homo sapiens, UniProt P08684)
- Sequence (P08684 whole entry): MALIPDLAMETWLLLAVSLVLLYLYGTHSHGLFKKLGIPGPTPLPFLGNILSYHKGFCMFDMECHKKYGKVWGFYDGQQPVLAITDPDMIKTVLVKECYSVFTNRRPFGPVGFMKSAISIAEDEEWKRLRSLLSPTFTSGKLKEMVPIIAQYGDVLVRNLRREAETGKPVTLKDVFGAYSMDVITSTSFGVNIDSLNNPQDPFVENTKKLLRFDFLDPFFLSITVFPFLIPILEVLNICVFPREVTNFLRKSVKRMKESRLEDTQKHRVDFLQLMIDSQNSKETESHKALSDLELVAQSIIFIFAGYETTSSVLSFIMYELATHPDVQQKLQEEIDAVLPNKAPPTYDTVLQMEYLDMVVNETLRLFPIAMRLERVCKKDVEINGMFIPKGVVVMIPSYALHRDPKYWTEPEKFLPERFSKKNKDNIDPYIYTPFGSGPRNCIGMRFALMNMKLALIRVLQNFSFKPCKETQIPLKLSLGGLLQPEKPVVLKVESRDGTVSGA
- TEST NAME: Inhibition of cytochrome P450 3A4
- COND: IC50 3A4, cDNA baculovirus-expressed enzyme, fluorescence substrate
The following compounds are shown together with reported pIC50 values.
Scale note: pIC50 = -log10(concentration in M).

1) C[C@@H]1CC[C@@]2(OC1)O[C@H]1C[C@H]3[C@@H]4CC=C5C[C@@H](O[C@@H]6O[C@H](CO)[C@@H](O[C@@H]7O[C@@H](C)[C@H](O)[C@@H](O)[C@H]7O)[C@H](O)[C@H]6O[C@@H]6O[C@@H](C)[C@H](O)[C@@H](O)[C@H]6O)CC[C@]5(C)[C@H]4CC[C@]3(C)[C@H]1[C@@H]2C = 4.48

Consider the additional compound presented here.
Task: Suppose we examine the compound "C[C@@H]1CC[C@@]2(OC1)O[C@H]1C[C@H]3[C@@H]4CC=C5C[C@@H](O)CC[C@]5(C)[C@H]4CC[C@]3(C)[C@H]1[C@@H]2C" ; what pIC50 value has been reported?
Output: 4.77

====

- TEST NAME: in vitro
- Assay type: in vitro ADME, human
- COND: human, Caco-2
Listing: Papp A→B at 2 h of selected compounds
Report the value in ×10⁻⁶ cm/s with no unit label.

1. C[C@@H]1CC[C@@]2(OC1)O[C@H]1C[C@H]3[C@@H]4CC=C5C[C@@H](O[C@@H]6O[C@H](CO)[C@@H](O[C@@H]7O[C@@H](C)[C@H](O)[C@@H](O)[C@H]7O)[C@H](O)[C@H]6O[C@@H]6O[C@@H](C)[C@H](O)[C@@H](O)[C@H]6O)CC[C@]5(C)[C@H]4CC[C@]3(C)[C@H]1[C@@H]2C = 15

Task: Looking for the measured Papp A→B at 2 h of "C[C@@H]1CC[C@@]2(OC1)O[C@H]1C[C@H]3[C@@H]4CC=C5C[C@@H](O)CC[C@]5(C)[C@H]4CC[C@]3(C)[C@H]1[C@@H]2C" , can you help?
Output: 9.6

====

- TEST NAME: in vitro
- Assay type: in vitro ADME, human
- COND: human, Caco-2
A collection of molecules and their measured efflux ratio at 120 min

Task: So what's the measured efflux ratio at 120 min for this one? "C[C@@H]1CC[C@@]2(OC1)O[C@H]1C[C@H]3[C@@H]4CC=C5C[C@@H](O[C@@H]6O[C@H](CO)[C@@H](O[C@@H]7O[C@@H](C)[C@H](O)[C@@H](O)[C@H]7O)[C@H](O)[C@H]6O[C@@H]6O[C@@H](C)[C@H](O)[C@@H](O)[C@H]6O)CC[C@]5(C)[C@H]4CC[C@]3(C)[C@H]1[C@@H]2C"
Output: 1.3

Task: Using the record for "C[C@@H]1CC[C@@]2(OC1)O[C@H]1C[C@H]3[C@@H]4CC=C5C[C@@H](O)CC[C@]5(C)[C@H]4CC[C@]3(C)[C@H]1[C@@H]2C" , report its efflux ratio at 120 min.
Output: 5

====

- SYSTEM: CYP3A4 (Homo sapiens)
- TEST NAME: Inhibition of cytochrome P450 3A4
- COND: IC50 CYP3A4, text, catalytic activity of CYP3A4
pIC50 reference
Answer as the number alone; pIC50 is minus log10 of concentration in mol/L.

1) C[C@@H]1CC[C@@]2(OC1)O[C@H]1C[C@H]3[C@@H]4CC=C5C[C@@H](O)CC[C@]5(C)[C@H]4CC[C@]3(C)[C@H]1[C@@H]2C [Diosgenin, diosgenin] = 4.66

Next up:
Task: What value of measured pIC50 is listed for C[C@@H]1CC[C@@]2(OC1)O[C@H]1C[C@H]3[C@@H]4CC=C5C[C@@H](O[C@@H]6O[C@H](CO)[C@@H](O[C@@H]7O[C@@H](C)[C@H](O)[C@@H](O)[C@H]7O)[C@H](O)[C@H]6O[C@@H]6O[C@@H](C)[C@H](O)[C@@H](O)[C@H]6O)CC[C@]5(C)[C@H]4CC[C@]3(C)[C@H]1[C@@H]2C [Dioscin, dioscin] ?
Output: 4.48
